Tested on: BT-549
Test: NCI-60 one-dose screen
Type: cell-based
Details: Homo sapiens; BT-549, Breast Cancer panel; single dose 10^−5 M; read-out: Growth inhibition %
property: inhibition at 10 µM

{"columns": ["compound", "tested target", "property", "result"],
 "data": [
  ["Cc1cccc(CNc2c3ccccc3nc3ccccc23)c1 [Compound 3, Acridin-9-yl-(3-methylbenzyl)-amine]", "BT-549", "inhibition at 10 µM", "32.7%"],
  ["COc1cccc(CNc2c3ccccc3nc3ccccc23)c1OC [Compound 16, Acridin-9-yl-(2,3-dimethoxybenzyl)-amine]", "BT-549", "inhibition at 10 µM", "40.3%"],
  ["Clc1ccc(CNc2c3ccccc3nc3ccccc23)cc1 [Compound 13, Acridin-9-yl-(4-chlorobenzyl)-amine]", "BT-549", "inhibition at 10 µM", "29.1%"],
  ["Fc1cccc(CNc2c3ccccc3nc3ccccc23)c1F [Compound 20, Acridin-9-yl-(2,3-difluorobenzyl)-amine]", "BT-549", "inhibition at 10 µM", "9.44%"],
  ["Cc1ccc2nc3ccccc3c(NCc3ccccc3)c2c1 [Compound 30, Benzyl-(2-methylacridin-9-yl)-amine]", "BT-549", "inhibition at 10 µM", "31%"],
  ["Cc1ccccc1CNc1c2ccccc2nc2ccccc12 [Compound 2, Acridin-9-yl-(2-methylbenzyl)-amine]", "BT-549", "inhibition at 10 µM", "44.1%"],
  ["c1csc(-c2ccc(CNc3c4ccccc4nc4ccccc34)cc2)c1 [Compound 24]", "BT-549", "inhibition at 10 µM", "66.3%"]
]}

From: paper PMC9866191
